CONDITIONS USED: in sec-butanol, 308.15 K
QUANTITY: solubility (mole fraction)
Answers are plain numbers.

Task item: Supply measured solubility (mole fraction) of `O=C(O)CCCc1c[nH]c2ccccc12` in your reply.
Reply: 0.0964

====

CONDITIONS USED: in methanol, 288.15 K
QUANTITY: solubility (mole fraction)
Numbers only.

Task item: Supply measured solubility (mole fraction) of `O=C(O)CCCc1c[nH]c2ccccc12` in your reply.
Reply: 0.0562

====

CONDITIONS USED: in n-propanol, 298.15 K
QUANTITY: solubility (mole fraction)
One number for each entry.

Task item: Supply measured solubility (mole fraction) of `O=C(O)CCCc1c[nH]c2ccccc12` in your reply.
Reply: 0.0605

====

CONDITIONS USED: in ethyl acetate, 293.15 K
QUANTITY: solubility (mole fraction)

Task item: Supply measured solubility (mole fraction) of `O=C(O)CCCc1c[nH]c2ccccc12` in your reply.
Reply: 0.0689

====

CONDITIONS USED: in 2-butanone, 318.15 K
QUANTITY: solubility (mole fraction)

Task item: Supply measured solubility (mole fraction) of `O=C(O)CCCc1c[nH]c2ccccc12` in your reply.
Reply: 0.24

====

CONDITIONS USED: in isobutyl acetate, 283.15 K
QUANTITY: solubility (mole fraction)
Answers are plain numbers.

Task item: Supply measured solubility (mole fraction) of `O=C(O)CCCc1c[nH]c2ccccc12` in your reply.
Reply: 0.0355

====

CONDITIONS USED: in ethyl acetate, 318.15 K
QUANTITY: solubility (mole fraction)
Give bare numbers.

Task item: Supply measured solubility (mole fraction) of `O=C(O)CCCc1c[nH]c2ccccc12` in your reply.
Reply: 0.145

====

CONDITIONS USED: in acetone, 288.15 K
QUANTITY: solubility (mole fraction)
Give bare numbers.

Task item: Supply measured solubility (mole fraction) of `O=C(O)CCCc1c[nH]c2ccccc12` in your reply.
Reply: 0.24

====

CONDITIONS USED: in isopentanol, 298.15 K
QUANTITY: solubility (mole fraction)
Answers are plain numbers.

Task item: Supply measured solubility (mole fraction) of `O=C(O)CCCc1c[nH]c2ccccc12` in your reply.
Reply: 0.0505

====

CONDITIONS USED: in ethyl lactate, 313.15 K
QUANTITY: solubility (mole fraction)
Answers are plain numbers.

Task item: Supply measured solubility (mole fraction) of `O=C(O)CCCc1c[nH]c2ccccc12` in your reply.
Reply: 0.165

====

CONDITIONS USED: in acetonitrile, 303.15 K
QUANTITY: solubility (mole fraction)
Numbers only.

Task item: Supply measured solubility (mole fraction) of `O=C(O)CCCc1c[nH]c2ccccc12` in your reply.
Reply: 0.104

====

CONDITIONS USED: in sec-butanol, 283.15 K
QUANTITY: solubility (mole fraction)
One number for each entry.

Task item: Supply measured solubility (mole fraction) of `O=C(O)CCCc1c[nH]c2ccccc12` in your reply.
Reply: 0.0417

====

CONDITIONS USED: in acetonitrile, 313.15 K
QUANTITY: solubility (mole fraction)
Numbers only.

Task item: Supply measured solubility (mole fraction) of `O=C(O)CCCc1c[nH]c2ccccc12` in your reply.
Reply: 0.155

====

CONDITIONS USED: in n-butyl acetate, 283.15 K
QUANTITY: solubility (mole fraction)
One number for each entry.

Task item: Supply measured solubility (mole fraction) of `O=C(O)CCCc1c[nH]c2ccccc12` in your reply.
Reply: 0.0582
